The values you see were collected from patent US20120142718A1.

molecular target: μ-opioid receptor (Homo sapiens, UniProt P35372)
Sequence (P35372 whole entry): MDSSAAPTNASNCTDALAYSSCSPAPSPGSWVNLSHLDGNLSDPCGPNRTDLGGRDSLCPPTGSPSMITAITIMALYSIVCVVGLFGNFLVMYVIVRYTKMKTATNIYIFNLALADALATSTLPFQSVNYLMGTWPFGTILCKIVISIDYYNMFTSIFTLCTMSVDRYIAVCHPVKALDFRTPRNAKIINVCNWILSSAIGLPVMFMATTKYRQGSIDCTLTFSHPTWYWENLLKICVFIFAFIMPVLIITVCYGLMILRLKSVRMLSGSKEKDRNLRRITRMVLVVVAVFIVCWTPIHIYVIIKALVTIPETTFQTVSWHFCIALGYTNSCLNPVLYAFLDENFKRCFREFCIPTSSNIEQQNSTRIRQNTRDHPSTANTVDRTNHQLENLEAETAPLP

>  <smiles.repr>
CN(CCNC(=O)[C@@H](N)CCCNC(=N)N)C(=O)Oc1ccc(C[N@@+]2(C)CC[C@]34c5c6ccc(O)c5O[C@H]3C(=O)CC[C@H]4[C@H]2C6)cc1

>  <tgt>
μ-opioid receptor (Homo sapiens, UniProt P35372)

>  <IC50 (nM)>
250

$$$$
